Target: T1, rhNav1.7α + β1-β2-β3 (rhesus monkey)
T1 construct: also called rhNav1.7-beta1-beta2-beta3; rhNav1.7-β1-β2-β3
Assay: binding FACS, CHO FlpIn
test-readout: Bmax (%)

>>> measured_result("F010302362 (VHH) VHH: EVQLVESGGGVVQPGGSLRLSCAASHRAFIRDVFTGWYRQAPGKQRELVARIYESGNTQYADSVKGRFTISRDNAKKTVYLQMNSLRPEDTALYYCLFSGTISTGREYRSGDYWGQGTLVTVSS")
89

(A) F010302345 (VHH) VHH: EVQLVESGGGVVQPGGSLRLSCAASHRQFIRDVFTGWYRQAPGKQRELVARIYEGGNTQYADSAKGRFTISRDNAKKTVYLQMNSLRPEDTALYYCLFSGTISTGREYRSGDYWGQGTLVTVSS
(B) F010302350 (VHH) VHH: EVQLVESGGGVVQPGGSLRLSCAASSRQFIRDVFTGWYRRAPGKQRELVARIYNEGNTQYADSVKGRFTISRDNAKKTVYLQMNSLRPEDTALYYCLFSGTISTGREYRSGDYWGQGTLVTVSS
q: Task for the reader: decide whether A or B has the larger Bmax. Please respond with the label that marks your chosen entry.
a: A
